- System: rodent lifetime carcinogenesis bioassay, tumor incidence TD50
- Test Name: carcinogenic potency in animals, long-term in vivo studies, CPDB compilation (AID 1745844)
- Setup Conditions: rat; strain Fischer 344; males; in feed; site: thyroid gland; lesion: follicular-cell adenoma + follicular-cell carcinoma; dosed 104 weeks; study length 105 weeks
Measure Name: TD50

query: Output measured TD50 for this item: `OCC(CO)(CBr)CBr`
result: 629 mg/kg/day

---

- Tested on: rodent lifetime carcinogenesis bioassay, tumor incidence TD50
- Test Name: carcinogenic potency in animals, long-term in vivo studies, CPDB compilation (AID 1745844)
- Setup Conditions: rat; strain Wistar; males; inhaled; site: adrenal gland; lesion: pheochromocytoma, benign/malignant; dosed 78 weeks; study length 134 weeks
Measure Name: TD50
Reply with the number, then its unit.

query: GET TD50 where system = rodent lifetime carcinogenesis bioassay, tumor incidence TD50 and item = `[Cl][Cd][Cl]`
result: 0.591 mg/kg/day

---

- Tested on: rodent lifetime carcinogenesis bioassay, tumor incidence TD50
- Test Name: carcinogenic potency in animals, long-term in vivo studies, CPDB compilation (AID 1745844)
- Setup Conditions: rat; strain Buffalo; females; in feed; site: kidney; lesion: tubular-cell adenocarcinoma; dosed 46 weeks; study length 64 weeks
Measure Name: TD50

query: Output measured TD50 for this item: `O=CNNc1nc(-c2ccc([N+](=O)[O-])o2)cs1`
result: 44.1 mg/kg/day

---

- Test system: rodent lifetime carcinogenesis bioassay, tumor incidence TD50
- Test Name: carcinogenic potency in animals, long-term in vivo studies, CPDB compilation (AID 1745844)
- Setup Conditions: rat; strain Fischer 344; females; in feed; site: thyroid gland; lesion: follicular-cell adenoma + follicular-cell carcinoma; dosed 78 weeks; study length 105 weeks
Measure Name: TD50 (mg/kg/day)
The figure you give is taken to be in mg/kg/day; do not add the unit.

query: Output measured TD50 for this item: `Nc1ccc(Cl)cc1N`
result: 2160

---

- Tested on: rodent lifetime carcinogenesis bioassay, tumor incidence TD50
- Test Name: carcinogenic potency in animals, long-term in vivo studies, CPDB compilation (AID 1745844)
- Setup Conditions: rat; strain Sprague-Dawley; both sexes; in drinking water; site: any site (literature study); lesion: benign tumor; dosed 97 weeks; study length 104 weeks
Measure Name: TD50 (mg/kg/day)
The figure you give is taken to be in mg/kg/day; do not add the unit.

query: Output measured TD50 for this item: `CCOC(N)=O`
result: 91.2

---

- Test system: rodent lifetime carcinogenesis bioassay, tumor incidence TD50
- Test Name: carcinogenic potency in animals, long-term in vivo studies, CPDB compilation (AID 1745844)
- Setup Conditions: rat; strain Fischer; males; in feed; site: urinary bladder; lesion: several types; types named in the paper; dosed 75 weeks; study length 75 weeks
Measure Name: TD50

query: GET TD50 where system = rodent lifetime carcinogenesis bioassay, tumor incidence TD50 and item = `COc1cc2c(cc1N)oc1ccccc12`
result: 26.4 mg/kg/day

---

- System: rodent lifetime carcinogenesis bioassay, tumor incidence TD50
- Test Name: carcinogenic potency in animals, long-term in vivo studies, CPDB compilation (AID 1745844)
- Setup Conditions: mouse; strain B6C3F1; females; by gavage; site: any site (literature study); lesion: several types; types named in the paper; dosed 103 weeks; study length 106 weeks
Measure Name: TD50 (mg/kg/day)
The figure you give is taken to be in mg/kg/day; do not add the unit.

>  <Molecule>
C=CCOC(=O)CC(C)C

>  <Study Target>
rodent lifetime carcinogenesis bioassay, tumor incidence TD50

>  <Value>
65.5

$$$$
>  <Molecule>
CC(CCl)OC(C)CCl (stereo not drawn)

>  <Study Target>
rodent lifetime carcinogenesis bioassay, tumor incidence TD50

>  <Value>
231

$$$$

query: Output measured TD50 for this item: `C=CCOC(=O)c1ccccc1C(=O)OCC=C`
result: 10100

---

- Test system: rodent lifetime carcinogenesis bioassay, tumor incidence TD50
- Test Name: carcinogenic potency in animals, long-term in vivo studies, CPDB compilation (AID 1745844)
- Setup Conditions: mouse; strain AP Alderly Park; females; several routes; site: ovary; lesion: granulosa-cell adenoma; dosed 65 weeks; study length 65 weeks
Measure Name: TD50

query: Output measured TD50 for this item: `CC/C(=C(\c1ccccc1)c1ccc(OCCN(C)C)cc1)c1ccccc1`
result: 3 mg/kg/day

---

- Tested on: rodent lifetime carcinogenesis bioassay, tumor incidence TD50
- Test Name: carcinogenic potency in animals, long-term in vivo studies, CPDB compilation (AID 1745844)
- Setup Conditions: hamster; strain Syrian Golden; females; by gavage; site: any site (literature study); lesion: several types; types named in the paper; dosed 80 weeks; study length 80 weeks
Activity calls are given as the source filed them. How the calls were made is not given here.
Measure Name: TD50

query: Output measured TD50 for this item: O=C(C1CCCCC1)N1CC(=O)N2CCc3ccccc3C2C1 (stereo unspecified)
result: 250 mg/kg/day (inactive)

---

- Tested on: rodent lifetime carcinogenesis bioassay, tumor incidence TD50
- Test Name: carcinogenic potency in animals, long-term in vivo studies, CPDB compilation (AID 1745844)
- Setup Conditions: mouse; strain CTM; males; in feed; site: several sites; sites named in the paper; lesion: papilloma; dosed 40 weeks; study length 73 weeks
Measure Name: TD50

query: Output measured TD50 for this item: `O=[N+]([O-])c1ccc(-c2cnc3ccccn23)o1`
result: 65.8 mg/kg/day

---

- System: rodent lifetime carcinogenesis bioassay, tumor incidence TD50
- Test Name: carcinogenic potency in animals, long-term in vivo studies, CPDB compilation (AID 1745844)
- Setup Conditions: rat; strain Fischer 344; males; by gavage; site: liver; lesion: hepatocellular carcinoma; dosed 25 weeks; study length 118 weeks
Measure Name: TD50

query: Output measured TD50 for this item: `Brc1cc(Br)c(-c2cc(Br)c(Br)cc2Br)cc1Br`
result: 1.3 mg/kg/day

---

- System: rodent lifetime carcinogenesis bioassay, tumor incidence TD50
- Test Name: carcinogenic potency in animals, long-term in vivo studies, CPDB compilation (AID 1745844)
- Setup Conditions: rat; strain Fischer 344; females; by gavage; site: thyroid gland; lesion: c-cell adenoma + c-cell adenoma, bilateral; dosed 102 weeks; study length 104 weeks
Measure Name: TD50 (mg/kg/day)
The figure you give is taken to be in mg/kg/day; do not add the unit.

query: Output measured TD50 for this item: `C=C1C/C(=C/C)C(=O)O[C@@H]2CCN3CC=C(COC(=O)[C@@]1(O)CO)[C@H]23`
result: 0.62

---

- Test system: rodent lifetime carcinogenesis bioassay, tumor incidence TD50
- Test Name: carcinogenic potency in animals, long-term in vivo studies, CPDB compilation (AID 1745844)
- Setup Conditions: mouse; strain B6C3F1; females; in feed; site: liver; lesion: hepatocellular adenoma + hepatocellular carcinoma; dosed 105 weeks; study length 105 weeks
Measure Name: TD50

query: Output measured TD50 for this item: `Brc1cc(Br)c(-c2cc(Br)c(Br)cc2Br)cc1Br`
result: 0.307 mg/kg/day

---

- Tested on: rodent lifetime carcinogenesis bioassay, tumor incidence TD50
- Test Name: carcinogenic potency in animals, long-term in vivo studies, CPDB compilation (AID 1745844)
- Setup Conditions: mouse; strain Charles River CD1; males; in feed; site: liver; lesion: basophil adenoma; dosed 79 weeks; study length 79 weeks
Measure Name: TD50 (mg/kg/day)
The figure you give is taken to be in mg/kg/day; do not add the unit.

query: GET TD50 where system = rodent lifetime carcinogenesis bioassay, tumor incidence TD50 and item = `CCCCOCCOCCOCc1cc2c(cc1CCC)OCO2`
result: 844

---

- Tested on: rodent lifetime carcinogenesis bioassay, tumor incidence TD50
- Test Name: carcinogenic potency in animals, long-term in vivo studies, CPDB compilation (AID 1745844)
- Setup Conditions: mouse; strain B6C3F1; females; in feed; site: liver; lesion: hepatocellular adenoma + hepatocellular carcinoma + neoplastic nodule; dosed 103 weeks; study length 104 weeks
Please note: TD50 exactly at 2000 mg/kg/day is condition not met. Only values below 2000 mg/kg/day get condition met.

>  <Compound>
CNc1ccc(N(CCO)CCO)cc1[N+](=O)[O-]

>  <Discrete Label>
condition met

$$$$

query: For this compound, is TD50 lower than 2000 mg/kg/day? CC1CCC(C(C)C)C(O)C1 (stereo not given)
result: condition not met

query: For this compound, is TD50 lower than 2000 mg/kg/day? `Cc1noc(NS(=O)(=O)c2ccc(N)cc2)c1C`
result: condition not met

query: For this compound, is TD50 lower than 2000 mg/kg/day? `C=CCc1ccc(O)c(OC)c1`
result: condition not met

---

- System: rodent lifetime carcinogenesis bioassay, tumor incidence TD50
- Test Name: carcinogenic potency in animals, long-term in vivo studies, CPDB compilation (AID 1745844)
- Setup Conditions: rat; strain Sprague-Dawley; females; by gavage; site: all sites; lesion: lymphoma and leukemia, combined; dosed 104 weeks; study length 123 weeks
Measure Name: TD50
Reply with the number, then its unit.

query: Output measured TD50 for this item: `Cc1cccc(C)c1`
result: 4170 mg/kg/day
